Listing of recorded Ki by entry.
- assay_system: Trypanothione reductase (Trypanosoma cruzi, UniProt P28593)
- Sequence (P28593 whole entry): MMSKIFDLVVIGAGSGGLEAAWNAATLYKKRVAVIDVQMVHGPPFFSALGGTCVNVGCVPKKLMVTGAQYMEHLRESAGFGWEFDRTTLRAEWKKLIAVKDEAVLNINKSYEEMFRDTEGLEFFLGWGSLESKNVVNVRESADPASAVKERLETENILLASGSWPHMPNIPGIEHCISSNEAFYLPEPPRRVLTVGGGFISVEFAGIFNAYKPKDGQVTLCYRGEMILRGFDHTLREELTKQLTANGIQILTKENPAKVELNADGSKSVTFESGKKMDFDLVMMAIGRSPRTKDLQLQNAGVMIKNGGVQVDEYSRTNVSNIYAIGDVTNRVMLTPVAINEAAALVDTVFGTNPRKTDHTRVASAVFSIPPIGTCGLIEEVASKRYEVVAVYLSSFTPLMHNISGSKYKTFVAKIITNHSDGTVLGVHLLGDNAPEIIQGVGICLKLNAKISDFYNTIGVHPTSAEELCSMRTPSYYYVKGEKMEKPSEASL
- experiment_description: Inhibition of Trypanosoma cruzi recombinant trypanothione reductase
// note: answer is a bare numeric in µM

compound	unit	Ki
CN(C)CCCN1c2ccccc2Sc2ccc(Cl)cc21	µM	3.2
CC[C@@]12CCCN3CC[C@]4(c5cccc(OC)c5N(C(C)=O)[C@@H]4CC1)[C@H]32	µM	64.6

Now look at this entry.
In: I'm curious: which Ki was measured for N#Cc1ccc(C2NCCc3c2[nH]c2ccccc32)cc1 (stereo not drawn) tested on Trypanothione reductase (Trypanosoma cruzi, UniProt P28593)?
Out: 2
